Molecular target: KPC-2 (Klebsiella pneumoniae, UniProt Q9F663)
Sequence (Q9F663 25-293 limits assumed): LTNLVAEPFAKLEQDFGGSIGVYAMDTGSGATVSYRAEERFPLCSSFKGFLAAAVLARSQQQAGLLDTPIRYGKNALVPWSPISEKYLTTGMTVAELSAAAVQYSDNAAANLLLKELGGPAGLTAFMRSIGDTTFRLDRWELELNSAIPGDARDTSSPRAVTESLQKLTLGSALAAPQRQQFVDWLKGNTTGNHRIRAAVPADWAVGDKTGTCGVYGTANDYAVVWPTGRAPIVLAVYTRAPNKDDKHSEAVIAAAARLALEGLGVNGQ
Test: Inhibitory activity on SBL, fluorescent substrate FC-5
Format: biochemical
Settings: unit inferred; read-out: KPC-2, number in parentheses under the class symbol
reported metric: IC50

query: Identify measured IC50 associated with O=C(O)c1c(CNc2nncs2)ccc2c1OB(O)CC2 [Comparative example 1 compound 64, reference compound]
result: 65 nM

----------
Molecular target: KPC-2 (Klebsiella pneumoniae, UniProt Q9F663)
Assay: Inhibitory activity on SBL, fluorescent substrate FC-5
Format: biochemical
Details: read-out: Inhibitory activity on SBL KPC-2 (IC50 class)
pIC50: −log10 of the molar value.
Listing of entries alongside the reported pIC50.

For orientation, consider the following solved cases.
compound: CO[C@H]1Cc2ccc(Cn3cc(CN)cn3)c(C(=O)O)c2OB1O [Compound 69]
assay target: KPC-2 (Klebsiella pneumoniae, UniProt Q9F663)
reported metric: pIC50
recorded result: 4.00 to 6.00

compound: NCCc1ccc(-c2cn(Cc3ccc4c(c3C(=O)O)OB(O)CC4)nn2)cc1 [Compound 65]
assay target: KPC-2 (Klebsiella pneumoniae, UniProt Q9F663)
reported metric: pIC50
recorded result: > 8.00

compound: O=C(O)c1c(CN2C[C@H](O)CC2=O)ccc2c1OB(O)CC2 [Compound 44]
assay target: KPC-2 (Klebsiella pneumoniae, UniProt Q9F663)
reported metric: pIC50
recorded result: 6.00 to 8.00

compound: N=C(N)N1CC(c2cn(Cc3ccc4c(c3C(=O)O)OB(O)CC4)nn2)C1 [Compound 49]
assay target: KPC-2 (Klebsiella pneumoniae, UniProt Q9F663)
reported metric: pIC50
recorded result: > 8.00

compound: N#Cc1cnn(Cc2ccc3c(c2C(=O)O)OB(O)CC3)c1 [Compound 17]
assay target: KPC-2 (Klebsiella pneumoniae, UniProt Q9F663)
reported metric: pIC50
recorded result: > 8.00

compound: O=C(O)c1c(Cn2cc(CN3CCCC3)nn2)ccc2c1OB(O)CC2 [Compound 5]
assay target: KPC-2 (Klebsiella pneumoniae, UniProt Q9F663)
reported metric: pIC50
recorded result: > 8.00

compound: O=C(O)c1c(Cn2cc([N+](=O)[O-])cn2)ccc2c1OB(O)CC2 [Compound 31]
assay target: KPC-2 (Klebsiella pneumoniae, UniProt Q9F663)
reported metric: pIC50
recorded result: > 8.00

compound: CO[C@H]1Cc2ccc(Cn3ccnn3)c(C(=O)O)c2OB1O [Compound 30]
assay target: KPC-2 (Klebsiella pneumoniae, UniProt Q9F663)
reported metric: pIC50
recorded result: > 8.00

query: Supply measured pIC50 of NCCNc1cnn(Cc2ccc3c(c2C(=O)O)OB(O)CC3)c1 [Compound 33] in your reply.
result: > 8.00
